Target: T1, NHis-Purβ (full-length) (Mus musculus, UniProt O35295 1-324)
T1 sequence: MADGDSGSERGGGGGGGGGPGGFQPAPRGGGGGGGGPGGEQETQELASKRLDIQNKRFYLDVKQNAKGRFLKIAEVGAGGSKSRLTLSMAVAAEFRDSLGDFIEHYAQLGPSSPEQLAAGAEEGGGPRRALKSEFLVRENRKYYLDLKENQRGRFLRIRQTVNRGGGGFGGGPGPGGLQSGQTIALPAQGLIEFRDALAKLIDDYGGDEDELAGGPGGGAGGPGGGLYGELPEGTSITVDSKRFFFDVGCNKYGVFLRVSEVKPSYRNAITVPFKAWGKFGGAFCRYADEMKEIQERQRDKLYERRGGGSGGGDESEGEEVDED
Test: competition
REPORTED_PROPERTY: IC50 (nM)

{"BINDER": "GGGAGCAGAACAGAGGAATGCAGTGGAAGAGA (ssDNA) [PE32-bF]", "UNIT_ABBREV": "nM", "TEST_VALUE": 1.2}
